- EXPERIMENT SUMMARY: Fraction of compound bio available orally in dog at dosage 30(mg/kg) by po administration.
- Type: ADME, organism-based, Canis lupus familiaris
- EXPERIMENTAL CONTEXT: in vivo
OUTCOME MEASURE: bioavailability (%)
Could you give me the number in %? Just the number is fine.

Query :: Using the record for CCC1(N(CCO)C(=O)c2ccccc2CCC(O)Cc2ccc(C)cc2C(=O)N(CCO)C(C)(C)c2ccccc2)CCCC1 (stereo unspecified) , report its bioavailability.
Result :: 33

====

- EXPERIMENT SUMMARY: Pharmacokinetic parameter Cmax determined after oral administration of 15 mg/kg to dog
- EXPERIMENTAL CONTEXT: in vivo
OUTCOME MEASURE: Cmax (ng/mL)
Your answer is read as ng/mL, so omit the unit and give the number.

Query :: Look up Cmax for this molecule: Cc1ccc(CC(O)CCc2ccccc2C(=O)N(CCO)C(C)(C)c2ccccc2)c(C(=O)N(CCO)C(C)(C)c2ccccc2)c1 (stereo unspecified)
Result :: 390

====

- EXPERIMENT SUMMARY: Pharmacokinetic parameter half life determined after oral administration of 15 mg/kg to dog
- Type: ADME, organism-based, Canis lupus familiaris
- Set-up: dose 15 mg/kg, route oral
- EXPERIMENTAL CONTEXT: in vivo
OUTCOME MEASURE: half-life (h)
Just the number in h, nothing appended.

Query :: I am curious: what half-life value has been reported for Cc1ccc(CC(O)CCc2ccccc2C(=O)N(CCO)C(C)(C)c2ccccc2)c(C(=O)N(CCO)C(C)(C)c2ccccc2)c1 (stereo unspecified) ?
Result :: 2.07

====

Collected pKi values appear next to each entry.
- TESTED ON: Human immunodeficiency virus type 1 protease (Human immunodeficiency virus 1, UniProt Q72874)
- EXPERIMENT SUMMARY: Binding affinity against HIV-1 protease
Worth noting: pKi values are minus log10 of concentrations stated in mol/L.

CC(C)(C)NC(=O)c1ccccc1CCC(O)Cc1ccccc1C(=O)NC(C)(C)C (centres undefined): 4.70
CC(C)(C)N(CCO)C(=O)c1ccccc1CCC(O)Cc1ccccc1C(=O)N(CCO)[C@@]12CCCC[C@@H]1CCC2 (relative stereo): 7.19
CC(C)(C)N(CCO)C(=O)c1ccccc1CCC(O)Cc1ccccc1C(=O)N(CCO)C(C)(C)c1ccc2ccccc2c1 (centres undefined): 6.84

// below: pKi requested for another compound
Query :: Which pKi reading was recorded for the compound CC(C)(c1ccccc1)N(CCO)C(=O)c1ccccc1CCC(O)Cc1ccccc1C(=O)N(CCO)C(C)(C)c1ccccc1 (centres undefined) ?
Result :: 7.68

====

- EXPERIMENT SUMMARY: Pharmacokinetic parameter Cmax determined after peroral administration of 15 mg/kg to dog
- Assay type: ADME, organism-based, Canis lupus familiaris
- Parameters: dose 15 mg/kg, route oral
- EXPERIMENTAL CONTEXT: in vivo, po
OUTCOME MEASURE: Cmax
Please answer using the number first and the unit second.

Query :: Report Cmax for CCC1(N(CCO)C(=O)c2ccccc2CCC(O)Cc2ccc(Cl)cc2C(=O)N(CCO)C(C)(C)c2ccccc2)CCCC1 (stereo unspecified) please.
Result :: 590 ng/mL

====

- EXPERIMENT SUMMARY: Fraction of compound bio available orally in rat at dosage 50(mg/kg) by po administration
- Format: ADME, organism-based
- EXPERIMENTAL CONTEXT: in vivo
OUTCOME MEASURE: bioavailability
Answer format reminder: number followed by unit.

Query :: Give its bioavailability value. Item: Cc1ccc(CC(O)CCc2ccccc2C(=O)N(CCO)C(C)(C)c2ccccc2)c(C(=O)N(CCO)C(C)(C)c2ccccc2)c1 (stereo unspecified)
Result :: 34%

====

- EXPERIMENT SUMMARY: Pharmacokinetic parameter Cmax determined after oral administration of 50 mg/kg to rat
- Assay type: ADME, organism-based
- Set-up: dose 50 mg/kg, route oral
- EXPERIMENTAL CONTEXT: in vivo
OUTCOME MEASURE: Cmax (ng/mL)
# value in ng/mL; strip the unit string

// solved cases for Cmax follow
CCC1(N(CCO)C(=O)c2ccccc2CCC(O)Cc2ccc(Cl)cc2C(=O)N(CCO)C(C)(C)c2ccccc2)CCCC1 (stereo not given): 1400
CCC1(N(CCO)C(=O)c2ccccc2CCC(O)Cc2ccc(C)cc2C(=O)N(CCO)C(C)(C)c2ccc(OCc3cccnc3)cc2)CCCC1 (stereo not given): 860
Cc1ccc(CC(O)CCc2ccccc2C(=O)N(CCO)C(C)(C)c2ccccc2)c(C(=O)N(CCO)C(C)(C)c2ccccc2)c1 (stereo not given): 1200
CCC1(N(CCO)C(=O)c2ccccc2CCC(O)Cc2ccc(C)cc2C(=O)N(CCC(O)CO)C(C)(C)c2ccccc2)CCCC1 (stereo not given): 840

Query :: # get_value(readout='Cmax', item= CCC1(N(CCO)C(=O)c2ccccc2CCC(O)Cc2ccc(C)cc2C(=O)N(CC(CO)CO)C(C)(C)c2ccccc2)CCCC1 (stereo not given) )
Result :: 1160

====

- TESTED ON: UniProt:Q72874
- EXPERIMENT SUMMARY: Binding affinity against HIV-1 protease
OUTCOME MEASURE: Ki (nM)
# number only, unit nM dropped from output

Sample answers from the record:
CC(C)(C)N(CCO)C(=O)c1ccccc1CC(O)CSc1ccccc1C(=O)N(CCO)C(C)(C)C (stereo not drawn): 18000
CCC1(N(CCO)C(=O)c2ccccc2CCC(O)Cc2ccc(C)cc2C(=O)N(CCO)C(C)(C)c2ccc(OCc3cccnc3)cc2)CCCC1 (stereo not drawn): 2

Query :: Quick check: Ki of CCC1(N(CCO)C(=O)c2ccccc2CCC(O)Cc2ccc(C)cc2C(=O)N(CC(CO)CO)C(C)(C)c2ccccc2)CCCC1 (stereo not drawn) ?
Result :: 10

====

- EXPERIMENT SUMMARY: Pharmacokinetic parameter Cmax determined after peroral administration of 15 mg/kg to dog
- EXPERIMENTAL CONTEXT: in vivo, po
OUTCOME MEASURE: Cmax (ng/mL)
Number in ng/mL, nothing else.

Query :: Cmax for CCC1(N(CCO)C(=O)c2ccccc2CCC(O)Cc2ccc(C)cc2C(=O)N(CC(CO)CO)C(C)(C)c2ccccc2)CCCC1 (stereo unspecified) ?
Result :: 1170

====

- EXPERIMENT SUMMARY: Pharmacokinetic parameter half life determined after intravenous administration of 15 mg/kg to dog
- Type: ADME, organism-based, Canis lupus familiaris
- Set-up: dose 15 mg/kg, route intravenous
- EXPERIMENTAL CONTEXT: in vivo
OUTCOME MEASURE: half-life

Query :: Give the measured half-life of CCC1(N(CCO)C(=O)c2ccccc2CCC(O)Cc2ccc(C)cc2C(=O)N(CCO)C(C)(C)c2ccccc2)CCCC1 (stereo unspecified) .
Result :: 14.4 min

====

- EXPERIMENT SUMMARY: Pharmacokinetic parameter half life determined after peroral administration of 30 mg/kg abd antacid (CaCO3 dosed orally 10 min prior to and 60 min postdosing) to dog
- EXPERIMENTAL CONTEXT: in vivo, po
OUTCOME MEASURE: half-life (min)
Report only the number, with the unit min understood.

Query :: Given the molecule CCC1(N(CCO)C(=O)c2ccccc2CCC(O)Cc2ccc(C)cc2C(=O)N(CCO)C(C)(C)c2ccccc2)CCCC1 (stereo unspecified) , what is its reported half-life?
Result :: 31.2

====

- EXPERIMENT SUMMARY: Maximal concentration in monkey plasma after 25 mg/kg oral dose
- Type: ADME, organism-based
- Set-up: dose 25 mg/kg, route oral
- EXPERIMENTAL CONTEXT: simiiformes
OUTCOME MEASURE: Cmax (ng/mL)
State the answer as a number, implicitly in ng/mL.

Query :: Return reported Cmax; argument: Cc1ccc(CC(O)CCc2ccccc2C(=O)N(CCO)C(C)(C)c2ccccc2)c(C(=O)N(CCO)C(C)(C)c2ccccc2)c1 (stereo unspecified)
Result :: 860

====

Quick reference for CC50 among some compounds
- EXPERIMENT SUMMARY: Toxic concentration at which 50% of CEM-SS cells were viable (uninfected with virus) as determined by metabolism of MTT in(uM).
- Type: toxicity, cell-based
- EXPERIMENTAL CONTEXT: human, read-out: TC50 (the source's name)
Give just the number in µM; leave the unit off.

CCC1(N(CCO)C(=O)c2ccccc2CCC(O)Cc2ccc(C)cc2C(=O)N(CCO)C(C)(C)c2ccccc2)CCCC1 (centres undefined): 103

Below: the item to evaluate.
Query :: I would be grateful if you could share the reported CC50 for CCC1(N(CCO)C(=O)c2ccccc2CCC(O)Cc2ccc(Cl)cc2C(=O)N(CCO)C(C)(C)c2ccccc2)CCCC1 (centres undefined) .
Result :: 97

====

- EXPERIMENT SUMMARY: Fraction of compound bio available orally in monkey at dosage 25(mg/kg) by po administration.
- EXPERIMENTAL CONTEXT: primates, in vivo
OUTCOME MEASURE: bioavailability (%)
Report the value in % with no unit label.

Query :: Suppose we examine the compound CCC1(N(CCO)C(=O)c2ccccc2CCC(O)Cc2ccc(C)cc2C(=O)N(CCO)C(C)(C)c2ccccc2)CCCC1 (stereo unspecified) ; what bioavailability value has been reported?
Result :: 32

Each recorded value in this set is attributed to ChEMBL document CHEMBL1129371.
